The measured values listed here are drawn from patent US20250027068.

tgt: pooled human IgG (human IgG1, 2, 3 and 4)
Could you please report measured Enzyme Activity Endpoint Assay (purified): IgG for the items listed next?
Form field: result (number plus unit)

Incoming: What does the record list as Enzyme Activity Endpoint Assay (purified): IgG for PRT-431 (protein) MSQTEDSESLQRLRDIEDFQAEKKKQNVVYTKWLDGVDVKDHDFRKIVDGNIAYYATPLLNGRGFYDINKDFNRDSDKCAAAVAANMFHYWLDRNRDNVDRFLRQNPEKHGIIELPDGQLKLSDFLNTYESDDGYRDKSKLFDFISENFNGPVWTDKLLDNYINGYAYNYKYGRTIEDPTKNTSKINFFKEVFNEKILTNNHSIRNQNEFSVLLSEALYTGKAIGLSYGPAGLRHSLGHIISVWGADLDADGNVVAIYVTDSDDKKLTIGDERVGLKRYKISTDDEGRLRLTAYEETHNTGGQIRGLWTLDTGKQAWADYFDKTEQTGTDQAEQ ?
Outgoing: 0 ng/µL

Incoming: What does the record list as Enzyme Activity Endpoint Assay (purified): IgG for PRT-658 (protein) MQITSVWTKGVTPLTPEQFRYNNEDVIHAPYLAHQGWYDITKAFDGKDNLLCGAATAGNMLHWWFDQNKTEIEAYLSKHPEKQKIIFNNQELFDLRKAINTKDSQTNSALFNYFRDKAFPNLSARQLGVMPDLVLDMFINGYYLNVFKTQSTDVNRPYQDKDKRGGIFDAVFTRGDQTTLLTARHDLKNKGLNDISTIIKQELTEGRALALSHTYANVSISHVINLWGADFNAEGNLEAIYVTDSDANASIGMKKYFVGINAHGHVAISAKKIEGENIGAQVLGLFTLSSGKDIWQKLSLEHHHHHH ?
Outgoing: 0 ng/µL

Incoming: What does the record list as Enzyme Activity Endpoint Assay (purified): IgG for PRT-475 (protein) MVTSVWTKGVTPPTNFRKIVDGNIAYYHAPYVANQGWYDITKTFNGKDDLLCGAATAGNMLHWWFDQNKEQIENYLKKHPEKQKINFNGEQMFDVKEAIDTKDSQLDSKLFEYFKEKAFPYLSTKHLGVFPDHVIDMFINGYRLSLTNHGPTPVKRGSKDPRGGIFDAVFTRGDQSKLLTNRHDLKNKTLKEISDLIKQELTEGKALGISHTYANVRINHVINLWGADFDAEGNLEAIYVTDSDSNASIGMKKYFVGVNSNGKVAISAKEIEEDNIGAQVLGLFTLSTGQDIWNQTNLEHHHHHH ?
Outgoing: 0 ng/µL

Incoming: What does the record list as Enzyme Activity Endpoint Assay (purified): IgG for PRT-490 (protein) MVTSVWTKGVTPPTDFIYGEDVLHAPYKAGQGWYDITKTFNGKDNLLCGAATAGNMLHWWFDQNKEQIENYLKKHPEKQKIIFNNQELFDLKAAIDTKDSQLDSKLFEYFKEKAFPYLSTKHLGVFPDHVIDMFINGYRLSLTNHGPTPVKRGSKDKRGGIFDAVFTRGVQSKLLTNRHDFKEKTLKEISDLIKQELTEGKALGISHTYANVRINHVINLWGADFDAEGNLEAIYVTDSDTNASIGMKKYFVGVNSNGKVAISAKEIEEDNIGAQVLGLFTLSTGQDIWNQTNLEHHHHHH ?
Outgoing: 166 ng/µL

Incoming: What does the record list as Enzyme Activity Endpoint Assay (purified): IgG for PRT-445 (protein) MSQTEDSESLQRLRDIEDFQAEKKKQNVVYTKWLDGVDVKDHDFRKIVDGNIAYYATPLLNGRGFYDINKDFNRDSDKCAAAVAANMFHYWLDRNRDNVDRFLRQNPEKHGIIELPDGQLKLSDFLNTYESDDGYRDKSKLFDFISNNFNGPVWTDKLLDNYINGYAYNYKYGRTIEDSTKNTSKINFFKEVFNEKILTNNHSIRNQNEFSVLLSEALYTGKAIGLSYGPAGLRHSLGHIISVWGADLDADGNVVAIYVTDSDDKKLTIGDERVGLKRYKISTDDEGRLRLTAYEETHNTGGQIRGLWTLDTGKQAWADYFDKTEQTGTDQAEQ ?
Outgoing: 0 ng/µL

Incoming: What does the record list as Enzyme Activity Endpoint Assay (purified): IgG for PRT-406 (protein) MVTSVWTKGVTPPADFTQGEDVFHAPYVANQGWYDITKTFNRKDDLLCGAATAGNMLHWWFDQNKEYIEAYLKKHPEKQKIMFGDQELLDVRKAINTKGSQKNSELFNYFRDKAFPNLSARRLGVMPDLVLDMFINGYYLNVTKTQTTDVNRTYQEKDKRGGIFDAVFTRGDQSKLLTSRHDFKEKGLKEISDLIKQELTEGKALGLSHTYANVRINHVINLWGADFDSDGNLKAIYVTDSDSNASIGMKKYFVGVNSAGKVAISAKEIKEDNIGAQVLGLFTLSTGQDIWNQTN ?
Outgoing: 135 ng/µL

Incoming: What does the record list as Enzyme Activity Endpoint Assay (purified): IgG for PRT-439 (protein) MSQTEDSESLQRLRDIEDFQAEKKKQNVVYTKWLDGVDVKDHDFRKIVDGNIAYYATPLLNGRGFYDINKDFNRDSDKCAAAVAANMFHYWLDRNRDNVDRFLRQNPEKHGIIELPDGQLKLSDFLNTYESDDGYRDKSKLFDFISNNFNGPVWTDKLLDNYINGYAYNYKYGRLIEDPTKNTSKINFFKEVFNEKILTNNHSIRNQNEFSVLLSEALYTGKAIGLSYGPAGLRHSLGHIISVWGADLDADGNVVAIYVTDSDDKKLTIGDERVGLKRYKISTDDEGRLRLTAYEETHNTGGQIRGLWTLDTGKQAWADYFDKTEQTGTDQAEQ ?
Outgoing: 325 ng/µL

Incoming: What does the record list as Enzyme Activity Endpoint Assay (purified): IgG for PRT-433 (protein) MSQTEDSESLQRLRDIEDFQAEKKKQNVVYTKWLDGVDVKDHDFRKIVDGNIAYYATPLLNGRGFYDINKDFNRDSDKCAAAVAANMFHYWLDRNRDNVDRFLRQNPEKHGIIELPDGQLKLSDFLNTYESDDGYRDKSKLFDFISNNFNGPVWTDKLLDNYINGYAYNYKYGRTIEDPTKNTSKINFFKEVFNEKILTNNHSIRNQNEFSVLLIEALYTGKAIGLSYGPAGLRHSLGHIISVWGADLDADGNVVAIYVTDSDDKKLTIGDERVGLKRYKISTDDEGRLRLTAYEETHNTGGQIRGLWTLDTGKQAWADYFDKTEQTGTDQAEQ ?
Outgoing: 0 ng/µL
